B1: LINE1-full (parent)
chain: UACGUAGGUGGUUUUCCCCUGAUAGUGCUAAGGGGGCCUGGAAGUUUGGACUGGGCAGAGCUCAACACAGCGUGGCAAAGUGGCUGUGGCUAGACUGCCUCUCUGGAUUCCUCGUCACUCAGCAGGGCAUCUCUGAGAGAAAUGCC

variants of: B1; experiment: self-cleavage, relative activity (ratio to wild type); higher = more cleavage; in vitro, sequencing; the parent is a self-cleaving ribozyme
self-cleavage of 0.4 or higher: 1. Under 0.4: 0.

G97U A140G :: 0
U62C A124G :: 0
U52C G114A :: 1

stdin: Item U62C A129C with self-cleavage of 0.4 or above?
stdout: 0

stdin: Item A107G U119G with self-cleavage of 0.4 or above?
stdout: 1

stdin: Item A64U U91C with self-cleavage of 0.4 or above?
stdout: 0

stdin: Item A67G G88A with self-cleavage of 0.4 or above?
stdout: 0

stdin: Item U45C U112G with self-cleavage of 0.4 or above?
stdout: 1

stdin: Item A30G U143C with self-cleavage of 0.4 or above?
stdout: 1

stdin: Item A121G G122A with self-cleavage of 0.4 or above?
stdout: 1
